# Assay name: Agilent ZORBAX 300 SB-C18, 150 × 1 mm, 3.5 µm; A: water + 0.01% heptafluorobutyric acid; B: acetonitrile + 0.01% heptafluorobutyric acid; gradient (min/%B) 0/0 100/90
# Assay conditions: stereoisomer not certain
Readout label: LC retention time (min)

(a) S=C(Nc1cccnc1)N1CCc2ccccc21
(b) CCCCCCCCCCCC[N+](C)(C)CCOc1ccccc1
(c) c1cncc(-c2cn[nH]c2)c1
Give the ascending ranking of the items by reported LC retention time. Write the labels in rank order as requested.
c, a, b
(c: 6.56 min, a: 9.72 min, b: 16.6 min)

(I) S=C1NC2(CCCCC2)NN1c1ccccc1
(II) O=c1cc(O)c2ccccc2[nH]1
Lower value of LC retention time belongs to which: I or II ? State the label of the item chosen.
II

meta.source: the RepoRT retention time repository
